target: Delta-type opioid receptor (Homo sapiens, UniProt P41143); assay: Inhibition of delta opioid receptor (unknown origin) by MVD assay
Sequence (P41143 whole entry): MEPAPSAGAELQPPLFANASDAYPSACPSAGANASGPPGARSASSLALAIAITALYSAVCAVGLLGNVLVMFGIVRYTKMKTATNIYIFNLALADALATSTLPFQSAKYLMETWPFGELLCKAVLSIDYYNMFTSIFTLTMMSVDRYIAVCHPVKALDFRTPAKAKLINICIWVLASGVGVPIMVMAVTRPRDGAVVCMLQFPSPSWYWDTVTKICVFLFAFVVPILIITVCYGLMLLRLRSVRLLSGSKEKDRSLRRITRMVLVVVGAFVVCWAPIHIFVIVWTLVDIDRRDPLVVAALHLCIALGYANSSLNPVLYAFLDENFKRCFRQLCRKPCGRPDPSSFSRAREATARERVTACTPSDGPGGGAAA
Non-standard residues stand in square brackets, D forms with d. Residues, ends and D or L forms follow the SMILES beside them. ξ: configuration not given here. ξP = O=C(O)C1CCCN1
assay_readout: IC50 (µM)

compound	assay_readout	recorded_measurement
CC(C)C[C@H](NC(=O)C1CCCN1C(=O)[C@@H](N)Cc1ccc(O)cc1)C(=O)N[C@@H](CC(=O)O)C(=O)N[C@@H](CC(C)C)C(=O)N[C@@H](Cc1ccccc1)C(=O)O (some centres not stated) (H-Y[ξP]LDLF-OH)	IC50	24.4
CC(C)C[C@H](NC(=O)[C@H](CC(=O)O)NC(=O)[C@H](CC(C)C)NC(=O)C1CCCN1C(=O)[C@@H](N)Cc1ccc(O)cc1)C(=O)O (some centres not stated) (H-Y[ξP]LDL-OH)	IC50	51

Origin of measurements: ChEMBL document CHEMBL4406853
